The molecules below each have a reported pIC50 tested on Endothelial lipase (Homo sapiens); the values come from various publications.
pIC50: −log10 of the molar value.
measure-name: pIC50

CC(C)(C)CCN1CC(C(=O)NCCCc2ccc(Cl)c(Cl)c2)=C(O)C1=O | 8.24
CN1CC(C(=O)NCC2CCN(C(=O)c3ccc(Cl)c(Cl)c3)CC2)=C(O)C1=O | 5.31
O=C(NCCc1nnc(Cc2nc3ccc(-c4ccccc4)cc3s2)o1)C1CC1 | 7.72
O=C(c1nnc(N[C@H]2CCNC2=O)o1)c1nc2c(F)cc(-c3ccccc3)cc2s1 | 8.00
N#CC1(NC(=O)Cc2nnc(Cc3nc4c(-c5ccccc5)cccc4s3)o2)CC1 | 8.05
COCCNc1nnc(C(=O)c2nc3ccc(-c4ccccc4)cc3s2)o1 | 6.96
N#CC1(NC(=O)Cc2nnc(Cc3nc4cnc(-c5ccccc5)cc4s3)o2)CC1 | 8.10
N#CC1(NC(=O)Cc2nnc(Cc3nc4ccc(-c5cc6ccccc6s5)cc4s3)o2)CC1 | 7.55
COc1nc(-c2nnc(C(=O)c3nc4ccc(-c5ccccc5)cc4s3)o2)c(O)c(=O)[nH]1 | 7.72
O=C(c1nnc(N[C@H]2CCN(CC(F)(F)F)C2=O)o1)c1nc2ccc(-c3ccccc3)cc2s1 | 6.31
O=C(c1nnc(NCCc2cccnc2)o1)c1nc2ccc(-c3ccccc3)cc2s1 | 7.44
N#CCNC(=O)Cc1nnc(Cc2nc3cc(-c4ccccc4)ccc3o2)o1 | 6.41
CC(C)(C)OC(=O)CNc1nnc(C(=O)c2nc3ccc(-c4ccccc4)cc3s2)o1 | 6.89

* * *

# merged literature set: IC50 with Endothelial lipase (Homo sapiens, UniProt Q9Y5X9)
measure-name: IC50

O=C(Cc1nc2cc(-c3cccc(C(F)(F)F)c3)ccc2s1)NCc1cccc(C(=O)O)c1 | 290 nM
CN1CC(C(=O)NCCCc2ccccc2)=C(O)C1=O | 6440 nM
N#CCNC(=O)Cc1nnc(Cc2ccc(-c3ccccc3)cn2)o1 | 23000 nM
O=C(c1nnc(C2CCN(c3ncccn3)CC2)o1)c1nc2ccc(-c3ccccc3)cc2s1 | < 10 nM
O=C(NCCCc1ccc(Cl)c(Cl)c1)C1=C(O)C(=O)N(Cc2ccccc2)C1 | 3.65 nM

* * *

pIC50: −log10 of the molar value.
Compiled record: pIC50 values for Endothelial lipase (Homo sapiens, UniProt Q9Y5X9) across several sources.
measure-name: pIC50

CN1CC(C(=O)NC2CC[C@H](c3ccccc3)C2)=C(O)C1=O (single isomer, unassigned; isomer a) | 5.07
O=C(N[C@H]1CC[C@@H](c2ccccc2)CC1)C1=C(O)C(=O)N(C2CCN(c3ccc(F)cc3)CC2)C1 | 5.51
N#CC1(NC(=O)Cc2nnc(Cc3nc4ccc(C5=CCOCC5)cc4s3)o2)CC1 | 8.10
Nc1nnc(C(=O)c2nc3ccc(-c4ccccc4)cc3s2)o1 | 7.54

* * *

// read-out log10(IC50), gathered for Endothelial lipase (Homo sapiens, UniProt Q9Y5X9) from published studies
measure-name: log10(IC50) (log10 of the value in nM)

O=C(c1nnc(N[C@H](CCO)C(=O)O)o1)c1nc2ccc(-c3ccccc3)cc2s1 | 1.43
N#CCNC(=O)CNC(=O)Cc1nc2cc(-c3ccc(OC(F)(F)F)cc3)ccc2s1 | 1.75
CN1CC(C(=O)NCCc2ccc(Cl)c(Cl)c2)=C(O)C1=O | 2.72
O=C(NCc1ccc2c(c1)OCO2)n1[nH]c2ccccc2c1=O | 1.65
N#CC1(NC(=O)Cc2nnc(Cc3nc4ccc(-c5ncc(F)cn5)cc4s3)o2)CC1 | 1.64
CC1(Cc2nnc(C(=O)c3nc4ccc(-c5ccccc5)cc4s3)o2)NC(=O)N(CC(F)(F)F)C1=O (centres unmarked) | 1.04
